- Target: KDR (human, UniProt P35968 20-1356)
- Sequence (P35968 20-1356): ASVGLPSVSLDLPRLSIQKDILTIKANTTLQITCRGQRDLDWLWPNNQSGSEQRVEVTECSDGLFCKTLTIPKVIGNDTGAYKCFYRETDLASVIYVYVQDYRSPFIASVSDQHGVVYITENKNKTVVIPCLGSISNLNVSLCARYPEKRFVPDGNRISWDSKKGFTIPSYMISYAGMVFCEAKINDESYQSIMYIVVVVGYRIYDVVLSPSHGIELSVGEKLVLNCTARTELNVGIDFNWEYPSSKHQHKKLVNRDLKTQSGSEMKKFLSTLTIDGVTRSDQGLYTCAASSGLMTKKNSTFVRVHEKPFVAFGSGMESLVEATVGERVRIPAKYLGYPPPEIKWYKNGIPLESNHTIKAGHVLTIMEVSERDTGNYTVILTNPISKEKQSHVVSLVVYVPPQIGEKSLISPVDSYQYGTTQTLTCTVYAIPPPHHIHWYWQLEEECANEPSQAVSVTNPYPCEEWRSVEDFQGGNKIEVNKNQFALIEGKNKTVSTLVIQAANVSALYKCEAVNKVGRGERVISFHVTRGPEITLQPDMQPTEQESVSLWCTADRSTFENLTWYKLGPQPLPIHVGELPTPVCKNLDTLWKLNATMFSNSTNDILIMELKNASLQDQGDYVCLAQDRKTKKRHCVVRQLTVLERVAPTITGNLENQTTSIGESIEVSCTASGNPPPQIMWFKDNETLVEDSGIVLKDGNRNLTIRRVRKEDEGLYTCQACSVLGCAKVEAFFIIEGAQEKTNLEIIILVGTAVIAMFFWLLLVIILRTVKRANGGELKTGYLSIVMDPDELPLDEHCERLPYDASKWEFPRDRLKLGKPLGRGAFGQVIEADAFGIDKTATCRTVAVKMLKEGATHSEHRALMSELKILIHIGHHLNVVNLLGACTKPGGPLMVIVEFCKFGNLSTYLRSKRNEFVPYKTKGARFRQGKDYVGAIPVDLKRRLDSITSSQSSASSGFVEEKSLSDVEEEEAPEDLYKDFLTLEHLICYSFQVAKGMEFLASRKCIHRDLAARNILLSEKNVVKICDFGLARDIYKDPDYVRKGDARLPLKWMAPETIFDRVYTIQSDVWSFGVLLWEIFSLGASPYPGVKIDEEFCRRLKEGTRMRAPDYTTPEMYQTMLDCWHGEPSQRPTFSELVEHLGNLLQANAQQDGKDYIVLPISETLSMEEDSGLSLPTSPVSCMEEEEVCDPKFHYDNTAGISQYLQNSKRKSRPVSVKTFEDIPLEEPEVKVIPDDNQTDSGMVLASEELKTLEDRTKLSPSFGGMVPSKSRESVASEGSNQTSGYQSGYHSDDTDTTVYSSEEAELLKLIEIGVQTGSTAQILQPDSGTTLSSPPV
- Measurement description: cell-based or functional assay
// values below are reported Activity at 133 nM (% Inhibition), 1-hour Pre-incubation at 4° C., Average
Could you give me the number in %? Just the number is fine.

Some solved cases for reference:
Binder	Result
30D7 (antibody, V domains shown) VH: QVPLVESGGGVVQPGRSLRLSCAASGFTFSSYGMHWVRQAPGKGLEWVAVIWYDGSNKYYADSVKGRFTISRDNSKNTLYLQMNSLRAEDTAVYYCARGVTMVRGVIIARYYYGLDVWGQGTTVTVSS VL: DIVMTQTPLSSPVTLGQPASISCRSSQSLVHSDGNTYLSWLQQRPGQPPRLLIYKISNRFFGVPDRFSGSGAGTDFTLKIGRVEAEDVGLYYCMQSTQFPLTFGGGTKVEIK	27
27A3 (antibody, V domains shown) VH: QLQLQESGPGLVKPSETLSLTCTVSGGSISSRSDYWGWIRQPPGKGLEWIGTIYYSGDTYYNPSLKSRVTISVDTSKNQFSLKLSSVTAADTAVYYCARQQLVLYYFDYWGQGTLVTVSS VL: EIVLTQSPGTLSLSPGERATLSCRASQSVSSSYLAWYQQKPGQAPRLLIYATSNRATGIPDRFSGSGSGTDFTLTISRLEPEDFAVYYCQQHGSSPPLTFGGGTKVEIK	67
33C3 (antibody, V domains shown) VH: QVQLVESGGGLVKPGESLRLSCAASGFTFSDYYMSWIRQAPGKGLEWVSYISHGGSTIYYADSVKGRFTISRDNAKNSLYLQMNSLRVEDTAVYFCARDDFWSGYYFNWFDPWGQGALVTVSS VL: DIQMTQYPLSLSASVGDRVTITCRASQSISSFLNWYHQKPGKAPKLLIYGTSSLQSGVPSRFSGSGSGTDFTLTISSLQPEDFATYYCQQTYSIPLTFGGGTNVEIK	80

Ask | Endpoint output: Activity at 133 nM (% Inhibition), 1-hour Pre-incubation at 4° C., Average of 21H6 (antibody, V domains shown) VH: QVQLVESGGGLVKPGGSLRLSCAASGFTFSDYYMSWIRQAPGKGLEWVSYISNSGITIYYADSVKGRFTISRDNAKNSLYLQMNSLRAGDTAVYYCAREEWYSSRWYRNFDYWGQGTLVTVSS VL: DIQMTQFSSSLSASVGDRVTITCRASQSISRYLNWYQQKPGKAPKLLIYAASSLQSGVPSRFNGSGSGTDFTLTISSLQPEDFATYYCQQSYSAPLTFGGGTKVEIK . Value?
Reply | 74

Ask | Suppose we examine the binder 29F7 (antibody, V domains shown) VH: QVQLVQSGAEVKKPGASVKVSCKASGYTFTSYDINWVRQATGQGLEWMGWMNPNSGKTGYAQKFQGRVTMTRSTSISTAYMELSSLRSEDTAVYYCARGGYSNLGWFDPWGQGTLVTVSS VL: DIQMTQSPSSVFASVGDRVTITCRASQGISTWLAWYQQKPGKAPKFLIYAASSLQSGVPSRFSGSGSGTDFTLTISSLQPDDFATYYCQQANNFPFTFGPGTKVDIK ; what Activity at 133 nM (% Inhibition), 1-hour Pre-incubation at 4° C., Average value has been reported?
Reply | 44

Ask | Which value of Activity at 133 nM (% Inhibition), 1-hour Pre-incubation at 4° C., Average has been reported for 22B8 (antibody, V domains shown) VH: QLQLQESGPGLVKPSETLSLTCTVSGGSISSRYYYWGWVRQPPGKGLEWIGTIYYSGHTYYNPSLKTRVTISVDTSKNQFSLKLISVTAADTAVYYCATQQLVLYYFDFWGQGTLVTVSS VL: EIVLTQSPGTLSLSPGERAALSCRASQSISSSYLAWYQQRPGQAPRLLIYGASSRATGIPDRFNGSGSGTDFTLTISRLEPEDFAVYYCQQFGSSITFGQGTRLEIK in the records?
Reply | 76
